# Measured on: Focal adhesion kinase 1 (Homo sapiens)
# Procedure summary: small-molecule microarray binders of FAK, primary screen, biochemical, 635/667 nm fluorescence, BSA, DTT (AID 1130);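 note: composite of spot emission at 667 nm and signal to noise over triplicate slides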
# Run parameters: PTK2 binding, 635 nm fluorescence, higher = more signal
Recorded composite z-score by entry
Reported metric: composite z-score

Cc1ccc(S[C@]2(C(=O)NCc3ccccc3)CC(=O)N(Cc3ccccc3)[C@@H]2c2ccc(CO)cc2)cc1	0.691
COc1ccc(C(=O)Nc2cccc(CN3C(=O)[C@@]4(O[C@@H](CCn5cc(CCO)nn5)[C@H]([Si](C)(C)c5ccc(OC)cc5)[C@H]4C)c4ccccc43)c2)cc1	0.582
O=C1C2C=CC(C(O)c3ccc(F)cc3)N(Nc3ccccc3)C2C(=O)N1c1ccccc1 (centres undefined)	0.734
COC(=O)c1c(CC[C@@H](CO)NC(=O)N[C@@H](Cc2ccccc2)Cn2cc(C3(O)CCCCC3)nn2)oc(C(C)=O)c1C(=O)OC	0.0673
O=c1oc(-c2ccccc2)nc2cc(Br)ccc12	0.704
C=CCC(OC(C)=O)[C@@H]1[C@@H](N(Cc2cccc3ccccc23)C(=O)c2ccc(C)cc2)c2cc(OCCCO)ccc2N1C(=O)Cc1ccc(OC)cc1 (some centres undefined)	0.183
COc1ccc([Si](C)(C)[C@@H]2[C@@H](CC(=O)N3CCC[C@H]3CO)O[C@]3(C(=O)N(C)c4c(Br)cc(C)cc43)[C@H]2C)cc1	0.393
CCCCCN1CC=CC23O[C@@H]4C=CCOC(=O)[C@@H]4[C@H]2C(=O)N(CCCO)[C@@H]3C1=O (some centres undefined)	0.532
COC(=O)C1=CC(CCCO)=CC(C2CC2)N(Cc2sc3ccccc3c2Cl)C=C1C(=O)OC (centres undefined)	1.31
CCOC(=O)C1=CCC(c2ccc(C#N)cc2)N(S(=O)(=O)c2ccc(C)cc2)C1 (centres undefined)	0.047
CC(C)C(=C=CC[C@@H](O)c1ccccc1OCCO)C[C@@H](O)c1ccccn1	1.02
O=C1O[C@H](c2ccccc2)[C@H](c2ccccc2)N2[C@H]1[C@@H](C(=O)N1CCN(c3ncccn3)CC1)[C@]1(C(=O)Nc3ccccc31)[C@H]2c1ccc(OCCO)cc1	0.429
CCCCCCc1nc(CCCc2cc3c(c(CCCCCC)n2)[Si](C(C)C)(C(C)C)OC3)cc2c1[Si](C(C)C)(C(C)C)OC2	-0.0475
CCCN1C(=O)[C@]2(COC(c3ccc(OCCCO)cc3)=N2)Cc2ccccc21	0.473

----------
# Measured on: NADPH oxidase 2 (Homo sapiens) (UniProt P04839)
# Sequence (P04839 whole entry, looked up): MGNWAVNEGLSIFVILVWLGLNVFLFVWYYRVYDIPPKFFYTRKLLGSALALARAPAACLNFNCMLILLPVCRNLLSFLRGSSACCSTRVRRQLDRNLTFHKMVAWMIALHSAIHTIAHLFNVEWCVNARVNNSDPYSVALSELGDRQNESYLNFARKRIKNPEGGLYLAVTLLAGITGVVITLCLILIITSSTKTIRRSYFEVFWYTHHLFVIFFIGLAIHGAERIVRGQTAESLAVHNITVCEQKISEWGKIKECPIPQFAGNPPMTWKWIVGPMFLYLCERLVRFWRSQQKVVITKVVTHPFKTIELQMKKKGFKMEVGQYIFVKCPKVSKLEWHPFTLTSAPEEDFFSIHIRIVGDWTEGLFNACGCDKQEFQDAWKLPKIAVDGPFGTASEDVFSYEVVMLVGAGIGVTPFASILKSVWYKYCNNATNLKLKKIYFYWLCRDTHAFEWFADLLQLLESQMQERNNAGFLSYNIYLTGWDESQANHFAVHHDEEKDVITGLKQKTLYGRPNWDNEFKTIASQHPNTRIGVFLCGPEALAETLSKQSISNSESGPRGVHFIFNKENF
# Procedure summary: NOX2-dependent H2O2 signal modulators, primary screen, NOX inhibitor project, cell-based, HEK293-NOX2, PMA-stimulated, Amplex Red fluorescence (AID 1159); note: test concentration not given here
# Run parameters: 45 min, higher = more signal, called active from +8 up or from −8 down
Reported metric: z-score

CS(=O)(=O)CCOC(=O)C1=CC(c2ccc(CO)cc2)=CC(C2CC2)N(Cc2cc3c(cc2Br)OCO3)C=C1C(=O)OCCS(C)(=O)=O (centres undefined)	-1.77
Cc1ccccc1C(O)C1C=CC2C(=O)N(C)C(=O)C2N1Nc1ccccc1 (centres undefined)	-1.39
COC(=O)[C@@]1(Cc2ccccc2)N=C(c2ccc(OCCCO)cc2)O[C@H]1c1ccccc1N=[N+]=[N-]	-2.01
CC(=O)NCCCC[C@@H]1NC(=O)[C@@H]2C[C@H](C(=O)NCCCCCCNC(=O)CS)[C@H](c3ccc(O)cc3)N2C1=O	0.897
C#CCN(C(/C=C/c1ccccc1)CO)C(C(=O)O)c1ccccc1 (centres undefined)	-0.269
COCCOC(=O)N1C(=O)[C@@]2(c3cc(C#CCNC(N)=O)ccc31)[C@H](C(=O)N1CCc3cc(OC)c(OC)cc3C1)[C@H]1C(=O)O[C@H](c3ccccc3)[C@H](c3ccccc3)N1[C@@H]2c1ccc(OCCO)cc1	0.825
CC(C)C(=C=CC[C@H](O)c1ccccc1OCCO)C[C@H](O)c1ccccn1	-0.222
CN(C)CCCCCCNC(=O)[C@H]1C[C@H]2C(=O)N[C@@H](CCCCN)C(=O)N2[C@H]1c1ccc(O)cc1	0.418
[N-]=[N+]=NCc1ccccc1C[C@]1(C(=O)O)N=C(c2ccc(OCCCO)cc2)O[C@H]1c1ccccc1CN=[N+]=[N-]	-0.331
C=C(COC)C(=O)CC[C@H](OC(C)=O)c1cccc(OCCO)c1	-1.66
COCCOC(=O)N1C(=O)[C@@]2(c3ccccc31)[C@H](C(=O)NC[C@H](O)c1ccccc1)[C@H]1C(=O)O[C@H](c3ccccc3)[C@H](c3ccccc3)N1[C@@H]2c1ccc(OCCO)cc1	0.463
N#Cc1ccc(NN2C(C(O)C3CCCCC3)C=CC3C(=O)N(c4ccccc4)C(=O)C32)cc1 (centres undefined)	-2.02
NC(=O)NCC#Cc1ccc2c(c1)[C@]1(C(=O)N2)[C@H](C(=O)N2CCCCCCC2)[C@H]2C(=O)O[C@H](c3ccccc3)[C@H](c3ccccc3)N2[C@@H]1c1ccc(OCCO)cc1	1.35
COc1ccc([Si](C)(C)[C@H]2[C@H](CCn3cc([C@H](O)c4ccccc4)nn3)O[C@@]3(C(=O)N(Cc4cccc(N5CCC5=O)c4)c4ccccc43)[C@@H]2C)cc1	0.0292
